test system: HeLa cells; experiment: MTT cytotoxicity assay, HeLa cells; type: cell-based; conditions: Homo sapiens, 48 h incubation, * = compound precipitated at 1 mM from cell cultures
measured_endpoint: IC50

The recorded IC50 for entry CN(C)CC(O)CN1C(=O)C2C(C1=O)C1(c3ccccc3)CC2(c2ccccc2)C(c2ccccc2)=C1c1ccccc1 (stereo not shown) [a10] equals 0.001 mM

The recorded IC50 for entry CC(=O)OC12C=CC(OC(C)=O)(CC1)C1C(=O)N(CCN(C)C)C(=O)C12 (stereo not shown) [b6] equals > 1 mM

The recorded IC50 for entry CC(C)COC12CCC(C(=O)C1)C1C(=O)N(CCN(C)C)C(=O)C12 (stereo not shown) [c1] equals > 1 mM

The recorded IC50 for entry CCC12C(=O)C(CC)(C(c3ccccc3)=C1c1ccccc1)C1C(=O)N(CC(O)CN(C)C)C(=O)C12 (stereo not shown) [a8] equals > 1 mM

###

Kindly supply the reported IC50 values for the records listed here.
system: HeLa cells; assay: MTT cytotoxicity assay, HeLa cells; format: cell-based; details: Homo sapiens, 48 h incubation, * = compound precipitated at 1 mM from cell cultures

The recorded IC50 for entry CC1=CC2(C)CC(C)(C)C1C1C(=O)N(CCN3CCCCC3)C(=O)C12 (centres unmarked) [b14] equals 100 µM

The recorded IC50 for entry CCOC(=O)C1CC2C(=O)CC1(C)C1C(=O)N(CCN3CCOCC3)C(=O)C21 (centres unmarked) [c8] equals > 1000 µM

The recorded IC50 for entry CCN(CC)CCN1C(=O)C2C(C1=O)C1(CC)C(=O)C2(CC)C(c2ccccc2)=C1c1ccccc1 (centres unmarked) [a4] equals > 1000 µM

The recorded IC50 for entry CC(=O)OC12C=CC(OC(C)=O)(CC1)C1C(=O)N(CCN3CCCCC3)C(=O)C12 (centres unmarked) [b9] equals > 1000 µM

The recorded IC50 for entry COC12C=CC(CC1)C1C(=O)N(CCN(C)C)C(=O)C12 (centres unmarked) [b1] equals > 1000 µM

###

system: HeLa cells; experiment: MTT cytotoxicity assay, HeLa cells; assay type: cell-based; settings: Homo sapiens, 48 h incubation, * = compound precipitated at 1 mM from cell cultures
Kindly supply the reported IC50 values for the records listed here.
Value expressed in µM; do not type the unit.

The recorded IC50 for entry CN(C)CCN1C(=O)C2C(C1=O)C1(c3ccccc3)CC2(c2ccccc2)C(c2ccccc2)=C1c1ccccc1 (centres unmarked) equals 1

The recorded IC50 for entry CC(C)NCC(O)CN1C(=O)C2C(C1=O)C1(c3ccccc3)C(=O)C2(c2ccccc2)C(c2ccccc2)=C1c1ccccc1 (centres unmarked) equals 1

The recorded IC50 for entry CN(C)CC(O)CN1C(=O)C2C(C1=O)C1(C)C(=O)C2(C)C(c2ccccc2)=C1c1ccccc1 (centres unmarked) equals 100

The recorded IC50 for entry CN(C)CCCN1C(=O)C2C(C1=O)C1(c3ccccc3)CC2(c2ccccc2)C(c2ccccc2)=C1c1ccccc1 (centres unmarked) equals 1

The recorded IC50 for entry CN(C)CC(O)CN1C(=O)C2C(C1=O)C1(c3ccccc3)C(=O)C2(c2ccccc2)C(c2ccccc2)=C1c1ccccc1 (centres unmarked) equals 1

###

test system: HeLa cells; test: MTT cytotoxicity assay, HeLa cells; format: cell-based; conditions: Homo sapiens, 48 h incubation, * = compound precipitated at 1 mM from cell cultures
measured_endpoint: IC50

The recorded IC50 for entry CCN(CC)CCN1C(=O)C2C3CCC(OCC(C)C)(CC3=O)C2C1=O (stereo not drawn) equals > 1 mM

The recorded IC50 for entry COC12C=CC(CC1)C1C(=O)N(CCCN(C)C)C(=O)C12 (stereo not drawn) equals > 1 mM

The recorded IC50 for entry COC12C=CC(CC1)C1C(=O)N(CCN3CCCCC3)C(=O)C12 (stereo not drawn) equals > 1 mM

Cited source: patent EP2687509A2
